- Test system: Hepatitis C virus
- methodDescription: Antiviral activity against HCV 1b having NS5B E1202G/T1280I/K1846 mutation infected in human hepatoma cells after 3 days by replicon luciferase assay
- Assay type: functional, organism-based, Hepacivirus hominis
- measurementSetup: genotype 1b, 72 h
Field 'label' (enum: Yes / No). Set to Yes when EC50 is strictly under 400 nM; else No.

Task: # TODO verify EC50 < 400 nM strictly for this compound: Cc1cccc(C(=O)N2c3cccc(O)c3NC3=C(C2c2ccc(OCc4ccccc4)cc2F)S(=O)(=O)CC(C)(C)C3)n1 (racemic)
Output: Yes

Task: # TODO verify EC50 < 400 nM strictly for this compound: CC(=O)N1c2cccc(O)c2NC2=C(C(=O)CC(C)(C)C2)[C@@H]1c1ccc(OCc2ccccc2)cc1Cl
Output: No

Task: # TODO verify EC50 < 400 nM strictly for this compound: Cc1cccc(C(=O)N2c3cccc(O)c3NC3=C([C@H]2c2ccc(OCc4ccccc4)cc2F)S(=O)(=O)CC(C)(C)C3)n1
Output: No

Task: # TODO verify EC50 < 400 nM strictly for this compound: Cc1cccc(C(=O)N2c3cccc(O)c3NC3=C([C@@H]2c2ccc(OCc4ccccc4)cc2F)S(=O)(=O)CC(C)(C)C3)n1
Output: Yes

====

- Tested on: Hepatitis C virus
- methodDescription: Binding affinity to HCV 1b con1 isolate recombinant NS5B Cdelta21 RNA dependent RNA polymerase overexpressed in Escherichia coli BL21(DE3) by surface plasmon resonance experiment
- Parameters: species or system Hepacivirus hominis
endpoint: pKd
pKd here: minus log base 10 of the concentration, concentration in moles per litre.

Task: GET /values?readout=pKd&system=Hepatitis C virus&item= Cc1cccc(C(=O)N2c3cccc(O)c3NC3=C(C(=O)CC(C)(C)C3)[C@@H]2c2ccc(OCc3ccccc3)cc2F)n1
Output: 7.82
